Source: patent US20190359693A1

# TARGET_OR_TEST_SYSTEM: hemagglutinin (HA) of influenza virus H7N3 A/NIBRG/60 (A/mallard/Netherlands/12/00) (influenza A virus)
# ASSAY_COMMENT: cell-based or functional assay
MEASURED_PARAMETER: average neutralization titer (nM)
Reply numerically in nM, unit not repeated.

Reported average neutralization titer of MD2309 (bispecific antibody) EVQLVESGGGLVQAGDSLRISCAASGRTLSIYSMGWFRQAPGKEREFVATIGWNSGRTFYPDSLKGRFTISRDNARNTLYLQMNNLRPEDTAVYYCAAAKGPLRLSSQADYWGQGTQVTVSSGGGGSGGGGSEVQLVESGGGLVQAGDSLRLSCAASGPTFGMSAMGWFRQAPGKEREFVAAISGLGNPNYSDDVKGRFTISRENGRNTVYLQMNSLKPEDTAVYYCAQRKVYHVQGGDRPQAYDYWGQGTQVTVSSGGGGSGGGGSEVQLVESGGGLVQPGGSLRLSCAATGFTLENKAIGWFRQTPGSEREGVLCISKSGSWTYYTDSMRGRFTISRDNAENTVYLQMDSLKPEDTAVYYCATTTAGGGLCWDGTTFSRLASSWGQGTQVTVSS : 9.1
